- targetOrSystem: BACE1 (Homo sapiens, UniProt P56817)
- Sequence (P56817 46-501, species assumed): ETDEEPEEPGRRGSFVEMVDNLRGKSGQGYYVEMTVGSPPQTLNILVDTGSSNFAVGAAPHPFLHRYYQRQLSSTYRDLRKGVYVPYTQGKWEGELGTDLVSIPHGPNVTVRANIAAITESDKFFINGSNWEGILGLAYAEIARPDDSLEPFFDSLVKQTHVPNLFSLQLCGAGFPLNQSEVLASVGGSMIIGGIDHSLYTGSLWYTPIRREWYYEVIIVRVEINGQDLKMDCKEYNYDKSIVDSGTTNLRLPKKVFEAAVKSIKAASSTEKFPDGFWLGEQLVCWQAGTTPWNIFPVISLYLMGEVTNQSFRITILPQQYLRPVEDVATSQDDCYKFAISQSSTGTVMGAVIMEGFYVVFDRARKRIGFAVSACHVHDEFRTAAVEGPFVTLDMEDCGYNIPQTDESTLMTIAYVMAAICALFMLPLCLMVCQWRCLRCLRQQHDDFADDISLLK
- assayMethodText: In vitro enzymatic BACE FRET assay
- Type: biochemical
- conditionSet: beta secretase enzyme 0.2 nM, FRET substrate 50 nM, pH 4.2; read-out: BACE1 FRET assay (IC50 class)
pIC50: −log10 of the molar value.
propertyMeasured: pIC50

Given item Nc1nc2ccc(-c3c(F)cccc3C(=O)N3CCCC3)cc2cc1N1CCOCC1 , the value recorded as its pIC50 is 6.30 to 7.00

Given item Cc1cccc(C(=O)N2CCC(C(F)(F)F)C2)c1-c1ccc2nc(N)c(N3CCOCC3)cc2c1 (stereo not drawn) , the value recorded as its pIC50 is > 7.00

Given item Cc1cccnc1C(=O)c1cccc(C)c1-c1ccc2nc(N)c(N3CCOCC3)cc2c1 , the value recorded as its pIC50 is 6.30 to 7.00

Given item CCCCN(C)C(=O)c1cccc(C)c1-c1ccc2nc(N)c(N3CCOCC3)cc2c1 , the value recorded as its pIC50 is > 7.00

Given item Cc1cccc(C(=O)N2CCCC2)c1-c1ccc2nc(N)c(N3CCOC[C@@H]3C)cc2c1 , the value recorded as its pIC50 is 6.00 to 6.30

Given item Cc1cccc(C(=O)N2CCCCC2)c1-c1ccc2nc(N)c(N3CCOCC3)cc2c1 , the value recorded as its pIC50 is > 7.00

Given item COCCC1CN(c2cc3cc(-c4c(C)cccc4C(=O)N4CCCC4)ccc3nc2N)CCO1 (stereo not drawn) , the value recorded as its pIC50 is > 7.00

Given item Cc1cccc(C(=O)N2CC(C)CC(C)C2)c1-c1ccc2nc(N)c(N3CCOCC3)cc2c1 (stereo not drawn) , the value recorded as its pIC50 is 6.30 to 7.00

Given item Cc1cccnc1C(N)c1cccc(C)c1-c1ccc2nc(N)c(N3CCOCC3)cc2c1 (stereo not drawn) , the value recorded as its pIC50 is 6.00 to 6.30

Given item Nc1nc2ccc(-c3ccccc3C(=O)C3CCCCC3)cc2cc1N1CCOCC1 , the value recorded as its pIC50 is > 7.00

###

- targetOrSystem: BACE1 (Homo sapiens)
- assayMethodText: In vitro enzymatic BACE FRET assay
- Format: biochemical
- conditionSet: beta secretase enzyme 0.2 nM, FRET substrate 50 nM, pH 4.2; read-out: BACE1 FRET assay (IC50 class)
pIC50: −log10 of the molar value.
propertyMeasured: pIC50

Solved cases (6 shown):
molecule: COc1ccccc1C(=N)c1cccc(C)c1-c1ccc2nc(N)c(N3C[C@@H]4C[C@H]3CO4)cc2c1 [Example 188]
targetOrSystem: BACE1 (Homo sapiens)
resultValue: 6.30 to 7.00
--
molecule: Nc1nc2ccc(-c3ccccc3C(=O)CC3CCCC3)cc2cc1N1CCOCC1 [Example 156]
targetOrSystem: BACE1 (Homo sapiens)
resultValue: > 7.00
--
molecule: Cc1cccc(C(=O)N2CCCC2)c1-c1ccc2nc(N)c(C3CCCOCC3)cc2c1 (centres unmarked) [Example 206]
targetOrSystem: BACE1 (Homo sapiens)
resultValue: > 7.00
--
molecule: Cc1cccc(OC2CCOC2)c1-c1ccc2nc(N)c(N3CCOCC3)cc2c1 (centres unmarked) [Example 54]
targetOrSystem: BACE1 (Homo sapiens)
resultValue: 6.00 to 6.30
--
molecule: CO/N=C(\c1ccccc1)c1cccc(C)c1-c1ccc2nc(N)c(N3CCOCC3)cc2c1 [Example 15]
targetOrSystem: BACE1 (Homo sapiens)
resultValue: > 7.00
--
molecule: Cc1cccc(C(=O)N2CCC[C@@H](C)C2)c1-c1ccc2nc(N)c(N3CCOCC3)cc2c1 [Example 77]
targetOrSystem: BACE1 (Homo sapiens)
resultValue: > 7.00

Short answer on BACE1 (Homo sapiens) for Cc1cccc(C(=O)N2CCOC(C)(C)C2)c1-c1ccc2nc(N)c(N3CCOCC3)cc2c1 [Example 43] , pIC50: 6.30 to 7.00

Short answer on BACE1 (Homo sapiens) for Cc1cccc(C(=O)C2CCCC2)c1-c1ccc2nc(N)c(N3CCOCC3)cc2c1 [Example 184] , pIC50: > 7.00

Short answer on BACE1 (Homo sapiens) for CCCC1CCCN1C(=O)c1cccc(C)c1-c1ccc2nc(N)c(N3CCOCC3)cc2c1 (centres unmarked) [Example 63] , pIC50: 6.30 to 7.00

// data source = patent US8735384B2
